# System: Escherichia coli
# assayOverview: Antibacterial activity against Escherichia coli ATCC 25922 at 3.91 uM to 62.50 uM incubated in dark for 30 mins followed by exposure to light fluences at 650 nm and 6 J/cm2 and then incubated overnight measured after 24 hrs
# Type: functional, organism-based
Active and inactive are the calls of the source. No cut-off for these calls is given here.
assayMetric: Activity

INSERT INTO assay_data (structurenotation, testtarget, reportedresult) VALUES
  ('Nc1ccc(-c2c3nc(c(-c4ccc(N)cc4)c4ccc([nH]4)c(-c4ccccc4)c4nc(c(-c5ccccc5)c5ccc2[nH]5)C=C4)C=C3)cc1', 'Escherichia coli', 'inactive'),
  ('N[C@@H](Cc1c[nH]cn1)C(=O)Nc1ccc(-c2c3nc(c(-c4ccccc4)c4ccc([nH]4)c(-c4ccccc4)c4nc(c(-c5ccccc5)c5ccc2[nH]5)C=C4)C=C3)cc1', 'Escherichia coli', 'inactive'),
  ('Nc1ccc(-c2c3nc(c(-c4ccc(N)cc4)c4ccc([nH]4)c(-c4ccc(NC(=O)[C@@H](N)Cc5c[nH]cn5)cc4)c4nc(c(-c5ccc(N)cc5)c5ccc2[nH]5)C=C4)C=C3)cc1', 'Escherichia coli', 'inactive');
